Experimental target: HIV-1 JR-CSF Env T413A (HIV-1 (isolate JR-CSF)) (UniProt P20871)
Experiment description: cell-based or functional assay
Field: Fold IC50 increase relative to wild-type. Provide a value for each of the binders that follow.
One number for each entry, in fold.

Use the examples below as a reference point.
Binder	Result type	Recorded number
PGT-135 (antibody, V domains shown) VH: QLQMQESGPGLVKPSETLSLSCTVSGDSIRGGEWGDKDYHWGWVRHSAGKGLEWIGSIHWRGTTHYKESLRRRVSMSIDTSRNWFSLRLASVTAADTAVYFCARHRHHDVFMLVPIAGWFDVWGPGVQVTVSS VL: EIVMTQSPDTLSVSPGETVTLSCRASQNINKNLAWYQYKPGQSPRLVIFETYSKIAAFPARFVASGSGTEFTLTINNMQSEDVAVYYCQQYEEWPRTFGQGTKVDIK	Fold IC50 increase relative to wild-type	0.3
PGT-130 (antibody, V domains shown) VH: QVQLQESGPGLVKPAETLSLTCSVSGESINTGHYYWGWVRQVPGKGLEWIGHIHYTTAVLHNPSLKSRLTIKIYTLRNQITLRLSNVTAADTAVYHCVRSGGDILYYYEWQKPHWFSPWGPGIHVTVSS VL: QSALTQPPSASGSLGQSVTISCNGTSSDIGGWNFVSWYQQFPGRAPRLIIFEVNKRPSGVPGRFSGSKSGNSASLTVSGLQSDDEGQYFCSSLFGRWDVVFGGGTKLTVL	Fold IC50 increase relative to wild-type	0.6

Now for another entry.
Entry PGT-131 (antibody, V domains shown) VH: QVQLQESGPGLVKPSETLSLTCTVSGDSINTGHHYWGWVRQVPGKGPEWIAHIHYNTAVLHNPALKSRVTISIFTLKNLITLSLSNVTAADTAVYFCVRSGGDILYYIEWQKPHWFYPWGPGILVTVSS VL: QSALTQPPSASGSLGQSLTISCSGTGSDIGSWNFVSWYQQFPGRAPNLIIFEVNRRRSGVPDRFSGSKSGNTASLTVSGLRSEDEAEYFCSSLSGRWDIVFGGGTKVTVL — recorded Fold IC50 increase relative to wild-type = 0.6

Ref: patent US20200024330A1
